system: HBeAg; assay: PHH natural infection assay, HBeAg (alphalisa); format: cell-based, HBV; settings: Hepatitis B virus, read-out: HBeAg IC50

>  <compound>
Cc1ncc(C(=O)Nc2ccc(-c3nc4ccc(F)c(F)c4o3)cc2)o1

>  <unit_abbrev>
nM

>  <IC50>
2060

$$$$
>  <compound>
O=C(Nc1ccc(-c2nc3ccc(F)c(F)c3o2)cc1)C1CCOC1 (centres unmarked)

>  <unit_abbrev>
nM

>  <IC50>
550

$$$$
>  <compound>
O=C(Nc1ccc(-c2nc3cccc(F)c3o2)cc1)c1ccoc1

>  <unit_abbrev>
nM

>  <IC50>
5620

$$$$
>  <compound>
O=C(Nc1ccc(-c2nc3cc(F)cc(F)c3o2)cc1)C1CCOC1 (centres unmarked)

>  <unit_abbrev>
nM

>  <IC50>
2460

$$$$
>  <compound>
CC1(C(=O)Nc2ccc(-c3nc4c(F)cccc4o3)cc2)COC1

>  <unit_abbrev>
nM

>  <IC50>
1230

$$$$
>  <compound>
O=C(Nc1ccc(-c2nc3c(F)cccc3o2)cc1)c1cccnc1

>  <unit_abbrev>
nM

>  <IC50>
4530

$$$$
>  <compound>
O=C(Nc1ccc(-c2nc3c(F)c(F)ccc3o2)cc1)C1CCOC1 (centres unmarked)

>  <unit_abbrev>
nM

>  <IC50>
2100

$$$$
>  <compound>
CC(=O)OC1(C(=O)Nc2ccc(-c3nc4cccc(F)c4o3)cc2)CCOCC1

>  <unit_abbrev>
nM

>  <IC50>
840

$$$$
>  <compound>
CC1(C(=O)Nc2ccc(-c3nc4cccc(F)c4o3)cc2)CCOC1 (centres unmarked)

>  <unit_abbrev>
nM

>  <IC50>
850

$$$$
>  <compound>
CC1(C(=O)Nc2ccc(-c3nc4cccc(F)c4o3)cc2)CCCO1 (centres unmarked)

>  <unit_abbrev>
nM

>  <IC50>
1850

$$$$
>  <compound>
O=C(Nc1ccc(-c2nc3cc(Cl)ccc3o2)cc1)[C@H]1CCOC1 (single isomer, unassigned)

>  <unit_abbrev>
nM

>  <IC50>
3800

$$$$
>  <compound>
O=C(Nc1ccc(-c2nc3cccnc3o2)cc1)[C@H]1CCS(=O)(=O)C1 (single isomer, unassigned)

>  <unit_abbrev>
nM

>  <IC50>
7320

$$$$
>  <compound>
Cc1nnc(C(=O)Nc2ccc(-c3nc4ccc(F)c(F)c4o3)cc2)o1

>  <unit_abbrev>
nM

>  <IC50>
2110

$$$$
>  <compound>
CCCC(=O)Nc1ccc(-c2nc3ccc(Cl)cc3o2)cc1

>  <unit_abbrev>
nM

>  <IC50>
1460

$$$$
>  <compound>
CCC1(C(=O)Nc2ccc(-c3nc4cccc(F)c4o3)cc2)COC1

>  <unit_abbrev>
nM

>  <IC50>
9010

$$$$
>  <compound>
CC1(C(=O)Nc2ccc(-c3nc4cccnc4o3)cc2)CCOC1 (centres unmarked)

>  <unit_abbrev>
nM

>  <IC50>
3560

$$$$
>  <compound>
CC1(C(=O)Nc2ccc(-c3nc4ccc(F)cc4o3)cc2)CCCO1 (centres unmarked)

>  <unit_abbrev>
nM

>  <IC50>
1460

$$$$
>  <compound>
O=C(Nc1ccc(-c2nc3cccc(F)c3o2)cc1)C1CCSCC1

>  <unit_abbrev>
nM

>  <IC50>
1470

$$$$
>  <compound>
CC(C)(O)C(=O)Nc1ccc(-c2nc3cccc(F)c3o2)cc1

>  <unit_abbrev>
nM

>  <IC50>
190

$$$$
>  <compound>
O=C(Nc1ccc(-c2nc3cccnc3o2)cc1)C1CCS(=O)(=O)C1 (centres unmarked)

>  <unit_abbrev>
nM

>  <IC50>
4830

$$$$
>  <compound>
O=C(Nc1ccc(-c2nc3cccc(F)c3o2)cc1)C1CCOC1 (centres unmarked)

>  <unit_abbrev>
nM

>  <IC50>
1070

$$$$
>  <compound>
O=C(Nc1ccc(-c2nc3c(F)cccc3o2)cc1)C1CCOC1 (centres unmarked)

>  <unit_abbrev>
nM

>  <IC50>
2830

$$$$
>  <compound>
O=C(Nc1ccc(-c2nc3c(F)cccc3o2)cc1)C1CCS(=O)(=O)C1 (centres unmarked)

>  <unit_abbrev>
nM

>  <IC50>
1510

$$$$
>  <compound>
O=C(Nc1ccc(-c2nc3cccc(F)c3o2)cc1)C1CCC1

>  <unit_abbrev>
nM

>  <IC50>
720

$$$$
>  <compound>
O=C(Nc1ccc(-c2nc3cc(Cl)ccc3o2)cc1)C12CC(C1)C2

>  <unit_abbrev>
nM

>  <IC50>
2110

$$$$
>  <compound>
CC(C)(C)C(=O)Nc1ccc(-c2nc3cc(F)ccc3o2)cc1

>  <unit_abbrev>
nM

>  <IC50>
5550

$$$$

The origin of these recorded values is patent US20230286930A1.
